Biological target: human Cav2.2 (Homo sapiens)
Sequence (Q00975 whole entry): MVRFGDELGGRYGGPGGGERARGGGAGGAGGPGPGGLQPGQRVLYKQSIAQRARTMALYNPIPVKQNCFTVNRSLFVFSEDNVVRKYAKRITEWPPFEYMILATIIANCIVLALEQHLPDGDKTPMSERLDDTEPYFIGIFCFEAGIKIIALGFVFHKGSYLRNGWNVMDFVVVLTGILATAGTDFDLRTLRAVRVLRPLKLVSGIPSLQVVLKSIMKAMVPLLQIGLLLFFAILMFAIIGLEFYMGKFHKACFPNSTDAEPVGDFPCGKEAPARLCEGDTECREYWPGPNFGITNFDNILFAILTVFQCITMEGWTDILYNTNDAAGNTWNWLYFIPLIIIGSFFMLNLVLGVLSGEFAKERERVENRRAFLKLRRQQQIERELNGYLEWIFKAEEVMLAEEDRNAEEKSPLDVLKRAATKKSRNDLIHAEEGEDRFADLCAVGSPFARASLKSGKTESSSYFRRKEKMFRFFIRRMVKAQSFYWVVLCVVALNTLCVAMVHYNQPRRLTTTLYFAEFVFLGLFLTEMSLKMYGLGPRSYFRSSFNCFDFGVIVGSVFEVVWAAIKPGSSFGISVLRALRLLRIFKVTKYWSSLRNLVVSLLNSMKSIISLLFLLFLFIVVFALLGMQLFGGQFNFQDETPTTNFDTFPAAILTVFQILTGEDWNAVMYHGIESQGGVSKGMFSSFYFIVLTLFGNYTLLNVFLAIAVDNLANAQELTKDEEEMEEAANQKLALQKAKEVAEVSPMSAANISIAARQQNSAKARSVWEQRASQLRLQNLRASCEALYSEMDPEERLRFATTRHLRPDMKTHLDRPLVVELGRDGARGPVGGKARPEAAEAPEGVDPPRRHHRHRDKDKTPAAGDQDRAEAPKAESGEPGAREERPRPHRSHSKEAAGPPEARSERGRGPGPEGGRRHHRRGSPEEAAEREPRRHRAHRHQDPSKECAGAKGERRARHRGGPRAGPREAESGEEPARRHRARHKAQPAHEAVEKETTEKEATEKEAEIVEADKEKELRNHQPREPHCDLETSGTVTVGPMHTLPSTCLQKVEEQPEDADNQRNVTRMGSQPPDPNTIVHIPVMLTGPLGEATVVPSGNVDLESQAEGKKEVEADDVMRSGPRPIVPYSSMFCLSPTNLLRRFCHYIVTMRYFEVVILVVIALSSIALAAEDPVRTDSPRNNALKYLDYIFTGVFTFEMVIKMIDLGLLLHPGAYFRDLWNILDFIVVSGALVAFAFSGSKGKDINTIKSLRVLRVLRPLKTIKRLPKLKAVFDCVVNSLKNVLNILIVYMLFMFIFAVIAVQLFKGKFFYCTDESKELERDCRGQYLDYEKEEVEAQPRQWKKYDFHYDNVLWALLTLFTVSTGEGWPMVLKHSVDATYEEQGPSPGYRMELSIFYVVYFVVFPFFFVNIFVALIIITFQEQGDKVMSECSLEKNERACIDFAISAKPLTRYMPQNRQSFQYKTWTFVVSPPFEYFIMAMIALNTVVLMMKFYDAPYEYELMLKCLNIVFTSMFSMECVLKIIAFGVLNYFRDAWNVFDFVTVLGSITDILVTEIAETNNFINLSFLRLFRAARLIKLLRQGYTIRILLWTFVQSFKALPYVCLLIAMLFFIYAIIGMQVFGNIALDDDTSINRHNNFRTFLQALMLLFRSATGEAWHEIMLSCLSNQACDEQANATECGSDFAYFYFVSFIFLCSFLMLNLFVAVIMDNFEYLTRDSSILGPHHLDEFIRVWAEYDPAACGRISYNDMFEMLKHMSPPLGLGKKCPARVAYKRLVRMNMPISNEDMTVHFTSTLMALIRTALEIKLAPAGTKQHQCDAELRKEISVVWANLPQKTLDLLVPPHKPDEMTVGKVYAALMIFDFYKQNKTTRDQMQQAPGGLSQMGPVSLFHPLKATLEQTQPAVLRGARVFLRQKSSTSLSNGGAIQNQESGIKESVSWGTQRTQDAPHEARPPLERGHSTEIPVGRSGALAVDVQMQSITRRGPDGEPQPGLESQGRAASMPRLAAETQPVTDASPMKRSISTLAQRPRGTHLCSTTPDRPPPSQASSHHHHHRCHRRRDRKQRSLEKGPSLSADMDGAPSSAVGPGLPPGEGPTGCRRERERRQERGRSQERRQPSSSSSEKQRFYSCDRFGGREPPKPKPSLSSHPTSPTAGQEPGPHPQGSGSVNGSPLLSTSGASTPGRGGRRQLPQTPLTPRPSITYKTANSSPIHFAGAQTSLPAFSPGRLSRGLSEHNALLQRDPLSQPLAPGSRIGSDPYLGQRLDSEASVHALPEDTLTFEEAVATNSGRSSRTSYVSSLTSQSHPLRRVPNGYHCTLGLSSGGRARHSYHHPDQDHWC
Sequence (P54289 25-946 partner limits assumed): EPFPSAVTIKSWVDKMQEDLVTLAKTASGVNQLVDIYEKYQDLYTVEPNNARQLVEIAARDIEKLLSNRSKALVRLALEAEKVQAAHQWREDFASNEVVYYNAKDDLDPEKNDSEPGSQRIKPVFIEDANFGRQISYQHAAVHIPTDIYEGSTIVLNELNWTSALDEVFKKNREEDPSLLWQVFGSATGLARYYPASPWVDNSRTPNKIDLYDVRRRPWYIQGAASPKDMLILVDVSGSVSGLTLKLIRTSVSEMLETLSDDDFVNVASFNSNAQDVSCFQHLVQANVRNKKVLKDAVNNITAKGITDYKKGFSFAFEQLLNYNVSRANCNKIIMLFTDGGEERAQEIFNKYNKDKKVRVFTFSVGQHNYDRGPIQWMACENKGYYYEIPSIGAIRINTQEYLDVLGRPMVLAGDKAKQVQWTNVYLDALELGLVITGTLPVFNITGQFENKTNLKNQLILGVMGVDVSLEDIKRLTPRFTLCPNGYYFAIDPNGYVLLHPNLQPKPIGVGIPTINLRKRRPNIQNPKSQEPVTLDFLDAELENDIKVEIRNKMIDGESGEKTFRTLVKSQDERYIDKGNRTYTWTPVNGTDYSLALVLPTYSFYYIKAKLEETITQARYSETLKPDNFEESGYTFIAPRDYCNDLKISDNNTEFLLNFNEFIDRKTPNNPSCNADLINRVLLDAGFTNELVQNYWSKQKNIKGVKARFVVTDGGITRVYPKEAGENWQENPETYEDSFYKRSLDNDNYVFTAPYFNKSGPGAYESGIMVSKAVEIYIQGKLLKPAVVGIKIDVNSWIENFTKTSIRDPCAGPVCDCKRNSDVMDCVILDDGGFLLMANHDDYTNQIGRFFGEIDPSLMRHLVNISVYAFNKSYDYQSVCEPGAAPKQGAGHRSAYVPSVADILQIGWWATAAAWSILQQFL
Sequence (P54289 947-1103 partner limits assumed): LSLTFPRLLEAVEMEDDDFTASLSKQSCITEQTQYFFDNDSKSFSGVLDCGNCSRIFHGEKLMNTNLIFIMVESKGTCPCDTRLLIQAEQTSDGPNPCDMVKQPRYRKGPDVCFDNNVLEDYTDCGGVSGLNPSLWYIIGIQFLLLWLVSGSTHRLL
Sequence (P54284 whole entry partner): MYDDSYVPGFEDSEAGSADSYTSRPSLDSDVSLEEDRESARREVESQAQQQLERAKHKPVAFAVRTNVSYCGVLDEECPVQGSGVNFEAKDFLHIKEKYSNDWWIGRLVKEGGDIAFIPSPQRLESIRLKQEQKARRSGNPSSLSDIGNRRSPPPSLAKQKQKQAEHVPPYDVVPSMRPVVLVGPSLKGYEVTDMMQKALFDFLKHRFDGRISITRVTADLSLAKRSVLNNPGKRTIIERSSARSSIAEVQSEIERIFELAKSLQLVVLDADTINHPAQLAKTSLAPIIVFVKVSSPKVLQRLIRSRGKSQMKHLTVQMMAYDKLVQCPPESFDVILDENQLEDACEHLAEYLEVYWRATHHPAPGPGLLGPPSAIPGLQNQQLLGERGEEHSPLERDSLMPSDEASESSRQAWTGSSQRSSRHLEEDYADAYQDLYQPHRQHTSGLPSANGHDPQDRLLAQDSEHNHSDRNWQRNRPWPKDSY
Test: Assessment of calcium channel activity using FLIPR (Ca2+ influx in IMR32 cells)
Format: cell-based
Settings: 60 minute pre-incubation with compound, 2 μM nifedipine, depolarized with 80 mM KCl
pIC50: −log10 of the molar value.
outcome measure: pIC50

Use these answered entries as a reference point.
Provide the documented pIC50 with human Cav2.2 (Homo sapiens) as the system for CC(C)(C)[C@H](N)C(=O)N[C@H]1CC[C@@H]2CN(S(=O)(=O)c3ccc(C(F)(F)F)cc3)C[C@@H]21
5.29

Request - read-out pIC50 | tested on human Cav2.2 (Homo sapiens) | compound CC(C)C[C@H](NCC(C)(C)C)C(=O)N[C@@H]1CC[C@H]2CN(S(=O)(=O)c3cccc(C(F)(F)F)c3)C[C@H]21
6.14

Lookup: pIC50 / human Cav2.2 (Homo sapiens) / CCC[C@H](NC)C(=O)N[C@H]1CC[C@@H]2CN(S(=O)(=O)c3ccc(C(F)(F)F)cc3Cl)C[C@@H]21
6.11

GET /values?readout=pIC50&system=human Cav2.2 (Homo sapiens)&item= Fc1ccc(CN[C@H]2CC[C@@H]3CN(Cc4cccc(C(F)(F)F)c4)C[C@@H]32)cc1
5.51

Notebook: pull reported pIC50 for human Cav2.2 (Homo sapiens), entry CCC[C@H](NC)C(=O)N[C@H]1CC[C@@H]2CN(S(=O)(=O)c3ccc(F)c(Cl)c3)C[C@@H]21
5.20

A: CCC(CC)N[C@@H](CC(C)(C)C)C(=O)N[C@H]1CC[C@@H]2CN(S(=O)(=O)c3ccc(C(F)(F)F)cc3)C[C@@H]21
B: O=S(=O)(c1ccc(C(F)(F)F)cc1)N1C[C@H]2CC[C@H](NCC3CC3)[C@H]2C1
C: CC(C)C[C@@H](C(=O)N[C@@H]1CC[C@H]2CN(S(=O)(=O)c3ccc(F)cc3)C[C@H]21)N(C)C(=O)OC(C)(C)C
D: CC(C)C[C@@H](C(=O)N[C@@H]1CC[C@H]2CN(S(=O)(=O)c3cccc(C(F)(F)F)c3)C[C@H]21)N(C)C(=O)OC(C)(C)C
List the 4 entries from lowest pIC50 to highest pIC50 value. Answer format: list of labels, ordered as asked.
B, C, A, D
